Measured Percent Similarity Score (KD on rN), listed per entry for reference.
biological target: T1, rat NGF (rat, UniProt P25427 122-241); assay: SPR (Biacore T200), 100 nM mAb on NGF chip, similarity to parent mAb
T1 construct: also called rN
T1 sequence (P25427 122-241 limits assumed): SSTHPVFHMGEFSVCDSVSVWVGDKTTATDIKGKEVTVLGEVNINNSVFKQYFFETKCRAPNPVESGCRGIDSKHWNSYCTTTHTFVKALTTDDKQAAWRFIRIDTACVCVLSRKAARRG
Value expressed in %; do not type the unit.

Below, each entry is followed by its recorded Percent Similarity Score (KD on rN) result.
can9L12VL_H99A (antibody, V domains shown) VH: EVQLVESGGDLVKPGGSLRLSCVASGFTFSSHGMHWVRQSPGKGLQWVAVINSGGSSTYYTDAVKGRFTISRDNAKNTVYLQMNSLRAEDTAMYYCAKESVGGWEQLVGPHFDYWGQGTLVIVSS VL: QSVLTQPTSVSGSLGQRVTISCSGSTNNIGILGASWYQLFPGKAPKLLVYGNGNRPSGVPDRFSGADSGDSVTLTITGLQAEDEADYYCQSFDTTLGAAVFGGGTHLTVL | 43.7
can9L12VL_L32A (antibody, V domains shown) VH: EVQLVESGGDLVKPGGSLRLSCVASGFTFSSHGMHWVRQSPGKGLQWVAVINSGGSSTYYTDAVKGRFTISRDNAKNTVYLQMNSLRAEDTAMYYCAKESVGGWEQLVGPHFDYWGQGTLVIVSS VL: QSVLTQPTSVSGSLGQRVTISCSGSTNNIGIAGASWYQLFPGKAPKLLVYGNGNRPSGVPDRFSGADSGDSVTLTITGLQAEDEADYYCQSFDTTLGAHVFGGGTHLTVL | 1.7
can9L12VL_N28A (antibody, V domains shown) VH: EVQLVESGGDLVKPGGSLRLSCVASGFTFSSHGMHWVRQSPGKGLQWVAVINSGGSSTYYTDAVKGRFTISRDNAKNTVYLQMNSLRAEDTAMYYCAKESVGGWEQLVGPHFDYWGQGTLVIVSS VL: QSVLTQPTSVSGSLGQRVTISCSGSTNAIGILGASWYQLFPGKAPKLLVYGNGNRPSGVPDRFSGADSGDSVTLTITGLQAEDEADYYCQSFDTTLGAHVFGGGTHLTVL | 2.5
can9L12VL_O90A (antibody, V domains shown) VH: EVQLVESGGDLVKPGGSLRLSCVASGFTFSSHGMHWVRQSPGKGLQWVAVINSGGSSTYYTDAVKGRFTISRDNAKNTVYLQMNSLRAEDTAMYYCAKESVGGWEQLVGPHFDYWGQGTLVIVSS VL: QSVLTQPTSVSGSLGQRVTISCSGSTNNIGILGASWYQLFPGKAPKLLVYGNGNRPSGVPDRFSGADSGDSVTLTITGLQAEDEADYYCASFDTTLGAHVFGGGTHLTVL | 24.2

Please find the next binder below.
Entry can9L12VL_G30A (antibody, V domains shown) VH: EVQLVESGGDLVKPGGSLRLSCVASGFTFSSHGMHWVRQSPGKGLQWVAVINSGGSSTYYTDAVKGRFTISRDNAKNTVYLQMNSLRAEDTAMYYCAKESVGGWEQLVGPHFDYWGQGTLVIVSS VL: QSVLTQPTSVSGSLGQRVTISCSGSTNNIAILGASWYQLFPGKAPKLLVYGNGNRPSGVPDRFSGADSGDSVTLTITGLQAEDEADYYCQSFDTTLGAHVFGGGTHLTVL , Percent Similarity Score (KD on rN) reported as 13.8
